System: Histone deacetylase HD2 (Zea mays, UniProt Q94F81) | Read-out: IC50 | Origin: multiple publications
Target: Histone deacetylase HD2 (Zea mays, UniProt Q94F81)
Sequence (Q94F81 whole entry): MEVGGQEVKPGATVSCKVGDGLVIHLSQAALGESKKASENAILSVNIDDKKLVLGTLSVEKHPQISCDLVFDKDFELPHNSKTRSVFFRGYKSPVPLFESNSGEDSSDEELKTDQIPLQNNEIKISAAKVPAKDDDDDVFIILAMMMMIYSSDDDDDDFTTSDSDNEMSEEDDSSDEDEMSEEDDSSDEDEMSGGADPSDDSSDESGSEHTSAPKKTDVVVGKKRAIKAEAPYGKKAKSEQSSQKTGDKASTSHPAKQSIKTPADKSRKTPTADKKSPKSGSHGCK
property: IC50 (nM)

INSERT INTO results (compound, endpoint_value) VALUES
  ('Cn1cc(/C=C/C(=O)c2cccc3ccccc23)cc1/C=C/C(=O)NO', 200),
  ('Cn1cc(/C=C/C(=O)c2ccccc2Cl)cc1/C=C/C(=O)NO', 5200),
  ('O=C(CCCCCCC(=O)N[C@H](Cc1ccccc1)C(=O)NCCc1ccccc1)NO', 340),
  ('O=C(/C=C/c1ccccc1CSc1nc(O)cc(-c2ccccc2)n1)NO', 367),
  ('Cn1cc(/C=C/C(=O)c2ccccc2Br)cc1/C=C/C(=O)NO', 360),
  ('O=C(/C=C/c1cccc(CSc2nc(O)cc(-c3ccccc3)n2)c1)NO', 17),
  ('Cn1cc(/C=C/C(=O)c2ccccc2)cc1/C=C/C(=O)NO', 280),
  ('COC(=O)[C@H](Cc1ccc(-c2ccccc2)cc1)NC(=O)CCCCCCC(=O)NO', 210),
  ('O=C(CCSc1nc(O)cc(CCc2ccccc2)n1)NO', 37),
  ('O=C(/C=C/Sc1nc(O)cc(CCc2ccccc2)n1)NO', 41000),
  ('Cn1cc(/C=C/C(=O)c2ccc(-c3ccccc3)cc2)cc1/C=C/C(=O)NO', 26500),
  ('CC/C(=C\c1cc(/C=C/C(=O)NO)n(C)c1)C(=O)c1ccccc1', 420),
  ('O=C(CCCCCCSc1nc(-c2ccccc2)cc(=O)[nH]1)NO', 38),
  ('Cn1cc(C(=O)c2ccccc2)cc1/C=C/C(=O)NO', 3800),
  ('O=C(CCCCCCCSc1nc(CCc2ccccc2)cc(=O)[nH]1)NO', 90),
  ('COC(=O)[C@H](Cc1ccc2ccccc2c1)NC(=O)CCCCCCC(=O)NO', 40),
  ('O=C(CCCSc1nc(O)cc(-c2ccccc2)n1)NO', 27),
  ('O=C(CCCCSc1nc(-c2ccccc2)cc(=O)[nH]1)NO', 8),
  ('O=C(CCCCCCC(=O)Nc1ccccc1)NO', 1000),
  ('Cn1cc(C(=O)c2ccccc2)cc1CCC(=O)NO', 36800),
  ('Cn1cc(/C=C/C(=O)c2cccc(Cl)c2)cc1/C=C/C(=O)NO', 24200),
  ('COc1ccc(C(=O)c2cc(/C=C/C(=O)NO)n(C)c2)cc1', 2900),
  ('O=C(CCSc1nc(-c2ccccc2)cc(=O)[nH]1)NO', 822),
  ('O=C(CCCCCCC(=O)N[C@H](Cc1ccccc1)C(=O)O)NO', 750),
  ('CCC(c1ccccc1)c1cc(=O)[nH]c(SCCCCCC(=O)NO)n1 (stereo not drawn)', 32),
  ('Cc1ccc(C(=O)c2cc(/C=C/C(=O)NO)n(C)c2)cc1', 1900),
  ('O=C(CCCCCSc1nc(C(c2ccccc2)c2ccccc2)cc(=O)[nH]1)NO', 52),
  ('O=C(/C=C/c1ccc(CSc2nc(O)cc(Cc3ccccc3)n2)cc1)NO', 80);

----------
Collected set of IC50 measured with Histone deacetylase HD2 (Zea mays, UniProt Q94F81) across studies.
property: IC50 (µM)

INSERT INTO assay_data (structure_string, endpoint_value) VALUES
  ('COc1cccc(C(=O)/C=C/c2cc(/C=C/C(=O)NO)n(C)c2)c1', 0.54),
  ('COC(=O)[C@H](Cc1ccc([N+](=O)[O-])cc1)NC(=O)CCCCCCC(=O)NO', 0.85),
  ('O=C(CCCSc1nc(O)cc(CCc2ccccc2)n1)NO', 0.205),
  ('O=C(/C=C/c1ccc(CSc2nc(O)cc(-c3ccccc3)n2)cc1)NO', 0.023),
  ('O=C(/C=C/c1ccccc1CSc1nc(O)cc(Cc2ccccc2)n1)NO', 0.76),
  ('COC(=O)[C@H](Cc1cccc2ccccc12)NC(=O)CCCCCCC(=O)NO', 0.36),
  ('COc1ccc(C(=O)/C=C/c2cc(/C=C/C(=O)NO)n(C)c2)cc1', 0.57),
  ('O=C(CCCCCCC(=O)N[C@@H](Cc1ccccc1)C(=O)N1CCCC1)NO', 0.52),
  ('O=C(CCCCCCC(=O)N[C@@H](Cc1cccc2ccccc12)C(=O)NCCc1ccccc1)NO', 0.035),
  ('O=C(CCCCCSc1nc(C2(c3ccccc3)CC2)cc(=O)[nH]1)NO', 0.062);
